The reported measurements were obtained from patent US8632914B2.

System: P. falciparum
Test: Anti-Plasmodium activity: viability of P. falciparum cultures (pLDH enzyme assay)
Format: cell-based
Conditions: strain line ItG, 72 hr incubation, pLDH assay, mean of four determinations ± standard error, read-out: IC50 (μM) P. falciparum
Protocol: P. falciparum cultures were grown in O+ blood obtained by venipuncture of volunteers. […] After 1 hr the absorbance of the wells at 650 nm was determined using a ThermoMax microplate reader (Molecular Devices, Sunnyvale, Calif.). The IC50 values of individual compounds were determined using a non-linear regression analysis of the data^19 using the computer program SigmaPlot (Jandel Scientific) and are reported in Table 1. […]
# IC50 values compiled below

>  <Molecule>
c1ccc(Cn2cc[n+](Cc3ccc4ccccc4c3)c2)cc1

>  <IC50 / µM>
0.9

$$$$
>  <Molecule>
C[n+]1ccn(Cc2ccc(-c3ccc(Cn4cc[n+](C)c4)cc3)cc2)c1

>  <IC50 / µM>
0.12

$$$$
>  <Molecule>
Fc1ccc(Cn2cc[n+](Cc3ccc(F)cc3)c2)cc1

>  <IC50 / µM>
17

$$$$
>  <Molecule>
C[n+]1ccn(CCCCCCCCCCn2cc[n+](C)c2)c1

>  <IC50 / µM>
0.082

$$$$
>  <Molecule>
C[n+]1ccn(-c2ccc(-n3cc[n+](C)c3)cc2)c1

>  <IC50 / µM>
11.2

$$$$
>  <Molecule>
O=[N+]([O-])c1ccc(C[n+]2ccn(-c3ccc(-c4ccc(-n5cc[n+](Cc6ccc([N+](=O)[O-])cc6)c5)cc4)cc3)c2)cc1

>  <IC50 / µM>
0.026

$$$$
>  <Molecule>
O=C(Cn1cc[n+](CC(=O)c2ccc(Cc3ccccc3)cc2)c1)c1ccc(Cc2ccccc2)cc1

>  <IC50 / µM>
0.5

$$$$
>  <Molecule>
C[n+]1cn(-c2ccc(-c3ccc(-n4c[n+](C)c5ccccc54)cc3)cc2)c2ccccc21

>  <IC50 / µM>
0.07

$$$$
>  <Molecule>
CCCn1cc[n+](C)c1 [QT73, 3-Methyl-1-propylimidazolium bromide]

>  <IC50 / µM>
230

$$$$
